Quick list: Kd per entry.
targetDesc: T1, mature human TGF-β1 (human, UniProt P01137 279-390)
T1 construct: Bought protein (R&D Systems, Cat # 240-B/CF); also called TGF Beta 1; TGF-b1
T1 sequence (P01137 279-390 limits assumed): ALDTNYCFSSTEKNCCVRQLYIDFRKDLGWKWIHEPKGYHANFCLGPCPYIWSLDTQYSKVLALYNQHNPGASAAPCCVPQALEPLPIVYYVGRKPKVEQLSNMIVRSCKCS
experimentNotes: BIAcore 2000 SPR, antibody captured on Protein A, TGF-β injected

mAb 12.7 (antibody, human IgG4 S228P, kappa, V domains shown, Full-length monoclonal antibody, made by linking the Fab to an IgG4 Fc region) VH: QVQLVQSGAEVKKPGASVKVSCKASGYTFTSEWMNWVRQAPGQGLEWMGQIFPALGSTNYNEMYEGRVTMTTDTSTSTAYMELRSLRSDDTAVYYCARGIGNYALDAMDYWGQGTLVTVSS VL: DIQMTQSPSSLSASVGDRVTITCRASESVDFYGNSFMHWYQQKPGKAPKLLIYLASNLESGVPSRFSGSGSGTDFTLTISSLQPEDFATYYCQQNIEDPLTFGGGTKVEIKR: < 0.2 pM
mAb 4.17 (antibody, human IgG4 S228P, kappa, V domains shown, Full-length monoclonal antibody, made by linking the Fab to an IgG4 Fc region) VH: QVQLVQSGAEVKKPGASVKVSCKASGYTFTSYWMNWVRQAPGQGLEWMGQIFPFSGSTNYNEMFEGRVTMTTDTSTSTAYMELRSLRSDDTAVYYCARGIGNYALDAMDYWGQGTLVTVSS VL: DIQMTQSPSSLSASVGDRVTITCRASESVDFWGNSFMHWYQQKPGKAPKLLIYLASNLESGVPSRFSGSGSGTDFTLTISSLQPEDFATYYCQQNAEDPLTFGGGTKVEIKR: < 0.2 pM
mAb 12.4 (antibody, human IgG4 S228P, kappa, V domains shown, Full-length monoclonal antibody, made by linking the Fab to an IgG4 Fc region) VH: QVQLVQSGAEVKKPGASVKVSCKASGYTFTSYWMNWVRQAPGQGLEWMGQIFPALGSTNYGEMFEGRVTMTTDTSTSTAYMELRSLRSDDTAVYYCARGIGNYALDAMDYWGQGTLVTVSS VL: DIQMTQSPSSLSASVGDRVTITCRASESVDWWGNSFMHWYQQKPGKAPKLLIYLASNLESGVPSRFSGSGSGTDFTLTISSLQPEDFATYYCQQNIEDPLTFGGGTKVEIKR: < 0.2 pM

Record mAb 3.A (antibody, human IgG4 S228P, kappa, V domains shown, Full-length monoclonal antibody, made by linking the Fab to an IgG4 Fc region) VH: QVQLVQSGAEVKKPGASVKVSCKASGYTFTSYWMNWVRQAPGQGLEWMGQIFPASGSTNYGEMFEGRVTMTTDTSTSTAYMELRSLRSDDTAVYYCARGIGNYALDAMDYWGQGTLVTVSS VL: DIQMTQSPSSLSASVGDRVTITCRASESVDFWGNSFMHWYQQKPGKAPKLLIYLASNLESGVPSRFSGSGSGTDFTLTISSLQPEDFATYYCQQNIEDPLTFGGGTKVEIKR , field Kd: < 2 pM

Query mAb 12.8 (antibody, human IgG4 S228P, kappa, V domains shown, Full-length monoclonal antibody, made by linking the Fab to an IgG4 Fc region) VH: QVQLVQSGAEVKKPGASVKVSCKASGYTFTSYWMNWVRQAPGQGLEWMGQIFPALGSTNYNEMFEGRVTMTTDTSTSTAYMELRSLRSDDTAVYYCARGIGNYALDAMDYWGQGTLVTVSS VL: DIQMTQSPSSLSASVGDRVTITCRASESVDWYGNSFMHWYQQKPGKAPKLLIYYASNLESGVPSRFSGSGSGTDFTLTISSLQPEDFATYYCQQNAEDPLTFGGGTKVEIKR yields Kd of < 0.2 pM
